# Test system: MS2 coat protein
# PROTOCOL_SUMMARY: apparent Kd, MS2 coat protein; higher = weaker binding; RNA-MaP array; FMN 200 µM where present
# CONDITION_CONTEXT: designed as: OFF switch for flavin mononucleotide; no ligand
EXPERIMENTAL_READOUT: apparent Kd (nM)

* GCUAAGAGUGUGAGGAUAUGCUGGUCCUUGGAUCAGCAGAAGGCACAUGAGGAUCACCCAUGUGAAAACUUAGC | 23.3
* CAUGGCACGUAGGAUAUCUCGCAGCCCGGCUGCAGAGAAGGACGUACAUGAGGAUCACCCAUGUAUGAUCCAAA | 24.5
* UAUGUGUGAGGAUAUGGUAAAGAUAAGAUGAUGAAAGAACUCCAGAAGGCACAUGAGGAUCACCCAUGUAGAUA | 22.8
* UAUGUAUUCGUAGGAUAUCCGUCGCCACCGUGUGGAGAAGGACGAACAUGAGGAUCACCCAUGUAUCAUGGUGUAGACACUUUC | 126
* UUAGAUUAUGAAGGAUAUGGAUCUUAUUAUUAACCAGAAGGUCAACUCAACAUGAGGAUCACCCAUGUAUAAAGGGUAUUAGUU | 134
* GUCAGCUCGUGAGGAUAUACAACACUGCAUCGGCAGUGUAUUAAGAUCACAUGAGGAUCACCCAUGUAGAAGGCACGAGCUGAU | 13
* AUUAUGUAAGGAUAUCUUACAUGUGACUUCGGUCACUGUUAAGAGAAGGUACAUGAGGAUCACCCAUGUAGAAC | 18.7
* UUGGGACAUGAGGAUCACCCAUGUCAGGAUAUCCCGGCCCGCCCGUGAGGGCGGGCCGGGAGAAGGGACCUUUG | 41
* UUUUUAUUUGCAGGAUAUUGUAUUUUAUUACAUCAAGAAGGGCAUUACAUGAGGAUCACCCAUGUCUUCCUAUGGUUAACUAGU | 12.3
* CCAAGCUGUGUGAGGAUAUGCUGGUCCUUGGAUCAGCAGAAGGCACAUGAGGAUCACCCAUGUGAAAAGCUUGG | 15.1
* UGUCGGAGCAGAGGAUAUUACAUGAGGAUCACCCAUGUAUGAACCAAUAGCUGGAUACAGCAAUGUAAGAAGGCUGCUCCGACA | 9.16
* UAAUAAAACGAUCGGCGAUCCAAACAUGAGGAUCACCCAUGUAGAAGGGACUCUACAAAGUAGAGUCAGGAUAUACGAGAUCGA | 11.9
* UUGGACCUAGGAUAUACAUGAGGAUCACCCAUGUUGGCGCACGCCCACCUGGGCCCGAGUAGAAGGAGGAAUGU | 18.9
* CGUGCGUAUGUGAGGAUAUGCUGGUCCUUGGCUCGGCAGAAGGCACAUGAGGAUCACCCAUGUGGUGUCGUACA | 78.2
* GUGCUUGUCGAAGGAUAUGGUUACAUGAGGAUCACCCAUGUUAUGCUUGGUUACUUGUUUAGUUUCCAGAAGGUCGAUUAGUUG | 53.4
* CGUGCGUAUGUGAGGAUAUGCUGGUCCUUGGAUCGGCAGAAGGCACAUGAGGAUCACCCAUGUGGUGUCGUACG | 351
* AAUAUAGAGCUGGUCUCAAAAUAAACAUGAGGAUCACCCAUGUAGGAUAUCAGCACGAUAAGUGCUGAGAAGGACAUCCAGCUC | 16.3
* CAUUAAUUCAUUAUAGUAAUUAUACAGGAUAUGUUACAUGAGGAUCACCCAUGUAUUCUUGGUAAACAGAAGGGUAUUUCUAGU | 7.35
* GAGGCGCUAGCAGGAUAUGUACAUGAGGAUCACCCAUGUAAAUCUUUUUCUGGUGAAGCGCAAGUAUAGAAGGGCUAACGCUGG | 9.07
* GCGUCACAAUUAGAACCAAUACGAACAUGAGGAUCACCCAUGUAGGAUAUGCUAGAAGUUGAGUUGCAGAAGGACAUUUAUCGC | 10.6
* AAUGUCUGAGGAUAUCGUUUUUUGUACAUGAGGAUCACCCAUGUUUUAUUUUGUAUAUUACGAGAAGGCAGUGGAA | 24.1
* GGACCUCCUGAGGAUAUUGCAUCACCCGACUGAUAAGAAGGCAGAACAUGAGGAUCACCCAUGUGGGUACUCGG | 32.3
* UGAGCUACAGGAUAUACGUGACGACCGUGAGGUCGAAGGUUACAUGAGGAUCACCCAUGUAGAAGGGUAGUUCU | 148
* AUCAUGUGAGGAUAUGUGAUCAACCUUCUGUAUAGAUGAUUACAGAAGGCACAUGAGGAUCACCCAUGUAGAUC | 70.9
* AAGGAUAGAGGAUAUACAUAGAUACAGAUUCAUGUAGAACUACAUGAGGAUCACCCAUGUAGAAGGCUAUCCUA | 32.9
* GGAUAGGACAGAGGAUAUACAGAUAGGAUCUACUAUCAAACAGUCCUAACAUGAGGAUCACCCAUGUAGAAGGCUGUCCUAUCG | 21.7
* CGAUAGGACAGAGGAUAUACACAUGAGGAUCACCCAUGUGAUUUCGGCGCGAAAGCGCCAAACAUGUAGAAGGCUGUCCUAUCG | 11.3
* ACGACAAAAGUCGAACGAUGUAGCAGAAGGACAUGAGGAUCACCCAUGUAAAAUGUAACAGCCAUGUAGGAUAUGCAAAAUCGA | 37.7
* CGCGUAUGAGGAUAUGCAUAAAAGGGUGCACUGAGUCUGAGACAUGAGGAUCACCCAUGUAGAAGGCGUGCGCU | 12.9
